test-target: two-pore channel 2 (hTPC2) (Homo sapiens)
Construct: hTPC2-YFP stably expressed in HEK293 cells
Sequence (Q8NHX9 whole entry): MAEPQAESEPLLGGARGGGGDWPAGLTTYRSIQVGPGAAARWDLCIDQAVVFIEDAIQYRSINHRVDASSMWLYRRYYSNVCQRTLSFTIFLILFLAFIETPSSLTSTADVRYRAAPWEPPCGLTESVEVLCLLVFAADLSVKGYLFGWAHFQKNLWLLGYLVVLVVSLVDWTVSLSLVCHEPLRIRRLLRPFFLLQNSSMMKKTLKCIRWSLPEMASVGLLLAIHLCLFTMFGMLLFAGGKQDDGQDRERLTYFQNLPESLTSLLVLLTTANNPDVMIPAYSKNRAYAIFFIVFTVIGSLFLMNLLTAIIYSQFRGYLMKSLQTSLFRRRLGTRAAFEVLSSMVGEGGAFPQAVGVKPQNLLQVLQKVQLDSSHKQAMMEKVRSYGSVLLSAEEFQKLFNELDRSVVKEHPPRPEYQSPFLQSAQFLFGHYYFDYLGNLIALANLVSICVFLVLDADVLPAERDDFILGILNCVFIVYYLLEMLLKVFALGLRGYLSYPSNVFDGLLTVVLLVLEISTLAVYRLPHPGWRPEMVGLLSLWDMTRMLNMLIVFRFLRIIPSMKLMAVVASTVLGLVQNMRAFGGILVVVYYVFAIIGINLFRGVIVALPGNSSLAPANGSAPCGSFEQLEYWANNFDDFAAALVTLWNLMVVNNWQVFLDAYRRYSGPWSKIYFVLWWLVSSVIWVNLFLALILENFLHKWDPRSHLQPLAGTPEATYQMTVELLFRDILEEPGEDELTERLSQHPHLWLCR
test-method-notes: endolysosomal patch-clamp, block of PI([…])P2-evoked current
So I've got a bunch of compounds here, and I need their pIC50 values.
Give bare numbers, as −log10 of the molar value.

Solved cases (2 shown):
smiles-notation | experimental-endpoint | data-value
COc1ccc([C@@H]2COc3c(ccc(O)c3OC)C2)c(OC)c1O | pIC50 | 5.02
COc1ccc(-c2coc3cc(O)cc(O)c3c2=O)cc1O | pIC50 | 5.59

Query compound follows.
Identify measured pIC50 corresponding to `O=C1C[C@@H](c2ccc(O)cc2)Oc2cc(O)cc(O)c21`
4.13
